biological target: recombinantly produced human-NGF (human, UniProt P01138 122-241, limits assumed); experiment: ELISA, human NGF coated, IgG titrated
Sequence (P01138 122-241 limits assumed): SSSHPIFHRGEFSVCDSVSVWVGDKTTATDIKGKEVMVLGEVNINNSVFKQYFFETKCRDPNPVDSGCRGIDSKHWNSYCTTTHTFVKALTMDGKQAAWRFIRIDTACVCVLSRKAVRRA
endpointName: EC50 (ng/mL)
The reply should contain only the number, in ng/mL.

Task: Indicate the recorded EC50 value for this binder: Ab19 (antibody, human IgG1, V domains shown) VH: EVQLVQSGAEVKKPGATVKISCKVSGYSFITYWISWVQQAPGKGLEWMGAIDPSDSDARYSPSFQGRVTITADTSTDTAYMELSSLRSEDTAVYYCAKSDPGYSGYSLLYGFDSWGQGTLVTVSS VL: DIVMTQSPLSLPVTLGQPASISCRSSQSLVQRNGNTYLSWYQQRPGQPPRLLIYQVSNRYSGVPDRFSGSGSGTDFTLKISRVEAEDVGVYYCGQGAHLPLTFGQGTKVEIK
Result: 0.0324

Task: Indicate the recorded EC50 value for this binder: Ab28 (antibody, human IgG1, V domains shown) VH: EVQLVQSGAEVKKPGATVKISCKVSGYSFITYWISWVQQAPGKGLEWMGAIDPSDSDARYSPSFQGRVTITADKSTDTAYMELSSLRSEDTAVYYCAKSDPGYSGYSLLYGFDSWGQGTLVTVSS VL: DIVMTQSPLSLPVTLGQPASISCRSSQSLVQRNGNTYLSWYQQRPGQSPRLLIYQVSNRYSGVPDRFSGSGSGTDFTLKISRVEAEDVGVYYCGQGAHLPLTFGQGTKVEIK
Result: 0.0331
